Value source: patent US20190322676A1

For each of the molecules below, state its IC50.
Target: human CGT (ceramide galactosyltransferase), CHO/CGT lysate (Homo sapiens, UniProt Q16880)
Construct: Full-length human CGT cDNA was cloned into the BamH1/Xho1 site of pcDNA3.1 (+); expressed in transfected cells; host or cells: Chinese hamster ovary (CHO) cells; lysate prepared with M-PER
Sequence (Q16880 21-541): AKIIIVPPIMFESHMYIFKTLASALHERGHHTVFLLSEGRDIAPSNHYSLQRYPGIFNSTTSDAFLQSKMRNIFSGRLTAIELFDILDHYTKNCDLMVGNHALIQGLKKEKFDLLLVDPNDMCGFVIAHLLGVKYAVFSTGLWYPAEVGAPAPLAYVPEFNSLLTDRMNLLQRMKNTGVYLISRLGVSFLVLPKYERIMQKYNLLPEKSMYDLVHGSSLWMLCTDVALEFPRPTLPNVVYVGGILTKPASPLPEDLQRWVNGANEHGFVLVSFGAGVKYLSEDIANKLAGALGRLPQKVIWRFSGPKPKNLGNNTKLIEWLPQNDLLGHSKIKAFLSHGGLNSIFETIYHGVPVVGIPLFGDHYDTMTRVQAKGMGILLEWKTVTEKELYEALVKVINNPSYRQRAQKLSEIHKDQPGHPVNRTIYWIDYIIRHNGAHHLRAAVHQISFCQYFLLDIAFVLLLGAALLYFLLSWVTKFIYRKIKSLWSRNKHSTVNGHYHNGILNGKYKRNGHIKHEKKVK
Experiment: CGT enzyme assay, RapidFire/MS/MS readout (Table 1 ranges with one asterisk *)
Type: biochemical
Conditions: RapidFire method (range with one asterisk *)
Where a name gives a salt, the structure may show the parent alone.

Reported IC50 for NC1CC2CCC(C1)N2C(=O)[C@H](NS(=O)(=O)c1ccc2c(cnn2CC2CCCC2)c1)C(F)(F)c1ccc(Cl)cc1 (stereo partly drawn) [Compound 88-2] : what is it? 30 to 100 µM

What IC50 value was documented for this molecule, CC(C)N([C@@H](C(=O)N1C2CCC1CC(N)C2)C(F)(F)c1ccc(Br)cc1)S(=O)(=O)c1ccc2cc(OC3CCCC3)ccc2c1 (stereo partly drawn) [Compound 76-2] ? 30 to 100 µM

Give its IC50 value. Item: NC1CC2CCC(C1)N2C(=O)[C@H](NS(=O)(=O)c1ccc(OCC2CCCCC2)cc1)C(F)(F)c1ccc(OC2CCCCC2)cc1 (stereo partly drawn) [Compound 105-2] 10 to 30 µM

I'd like to know its IC50. The molecule in question is CCCCOc1cc(C(F)(F)[C@@H](NS(=O)(=O)c2ccc(OCC3CCCCC3)cc2)C(=O)N2CCC(N)CC2)ccc1Cl [Compound 127-2] 1 to 10 µM

Requested read-out: IC50. Entry: NC1CC2CCC(C1)N2C(=O)[C@@H](NS(=O)(=O)c1ccc(OCC2CCCCC2)cc1)C(F)(F)c1ccc(Cl)cc1 (stereo partly drawn) [Compound 29-1, trifluoroacetate] < 1 µM

Which IC50 is listed for NC1CCN(C(=O)[C@@H](NS(=O)(=O)c2ccc(OCC3CCCCC3)cc2)C(F)(F)c2ccc(-c3ccc(Cl)s3)cc2)CC1 [Compound 117-1] ? 1 to 10 µM

----------
molecular target: human CGT (ceramide galactosyltransferase), CHO/CGT lysate (Homo sapiens, UniProt Q16880); construct: Full-length human CGT cDNA was cloned into the BamH1/Xho1 site of pcDNA3.1 (+); expressed in transfected cells; host or cells: Chinese hamster ovary (CHO) cells; lysate prepared with M-PER; assay: CGT enzyme assay, RapidFire/MS/MS readout (Table 1 ranges with one asterisk *); assay type: biochemical; conditions: RapidFire method (range with one asterisk *)
Counter-ions that a name gives are not always drawn.
Assign IC50 to each entry below.

// lookup IC50 for CCCCOc1cc(C(F)(F)[C@H](NS(=O)(=O)c2ccc3cc(OC4CCCC4)ccc3c2)C(=O)N2C3CCC2CC(N)C3)ccc1Cl (stereo partly drawn) [Compound 118-1] < 1 µM

If you can, please state the reported IC50 value of NC1CC2CCC(C1)N2C(=O)[C@H](NS(=O)(=O)c1ccc2cc(OC3CCCC3)ccc2c1)C(F)(F)c1ccc(C(F)(F)F)cc1 (stereo partly drawn) [Compound 54-2] . 10 to 30 µM

# query: IC50 of entry NC1CC2CCC(C1)N2C(=O)[C@@H](NS(=O)(=O)c1ccc2cc(OC3CCCC3)ccc2c1)C(F)(F)c1ccc(-c2ccc(F)cc2)cc1 (stereo partly drawn) [Compound 56-1, trifluoroacetate] < 1 µM

I'd like to know its IC50. The compound in question is NC1CC2CCC(C1)N2C(=O)[C@H](NS(=O)(=O)c1ccc(OCC2CCCCC2)cc1)C(F)(F)c1ccc(-c2ccccc2)cc1 (stereo partly drawn) [Compound 35-2] 10 to 30 µM

If you can, please state the reported IC50 value of CCCCOc1cc(C(F)(F)[C@@H](NS(=O)(=O)c2ccc3cc(OC4CCCC4)ccc3c2)C(=O)N2CCC(N)CC2)ccc1Cl [Compound 126-2] . 1 to 10 µM

Sample CN([C@H](C(=O)N1C2CCC1CC(N)C2)C(F)(F)c1ccc(OCc2ccccc2)cc1)S(=O)(=O)c1ccc2cc(OC3CCCC3)ccc2c1 (stereo partly drawn) [Compound 106-1] — what was its IC50? 1 to 10 µM
